Each entry below carries its recorded pIC50.
molecular target: human C5aR(CD88) (Homo sapiens); construct: expressed in transfected cells; host or cells: rat basophilic leukemia cells (RBL); assay: Determination of the IC50 value in an enzyme release assay (functional assay, antagonistic activity); type: cell-based; details: antagonistic activity; IC50 group in enzyme release assay, RBL cells expressing human C5aR(CD88); read-out: activity (group)
Sequence (P21730 whole entry): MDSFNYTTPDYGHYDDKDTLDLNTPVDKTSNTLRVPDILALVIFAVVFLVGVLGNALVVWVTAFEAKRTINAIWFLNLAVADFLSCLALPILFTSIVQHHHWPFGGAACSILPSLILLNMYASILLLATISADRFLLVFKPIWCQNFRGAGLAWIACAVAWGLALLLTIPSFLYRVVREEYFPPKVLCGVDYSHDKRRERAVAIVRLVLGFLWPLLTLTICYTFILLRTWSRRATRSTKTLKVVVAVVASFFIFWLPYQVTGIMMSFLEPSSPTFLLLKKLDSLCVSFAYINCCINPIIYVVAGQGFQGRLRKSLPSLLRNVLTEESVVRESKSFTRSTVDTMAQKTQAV
pIC50: −log10 of the molar value. Positions of bridges follow the written chain, without caps; N, C: chain ends. Non-standard residues stand in square brackets, D forms with d. Residues, ends and D or L forms follow the SMILES beside them. Phe(4-NH2) = Nc1ccc(C[C@H](N)C(=O)O)cc1; Phe(4-F) = N[C@@H](Cc1ccc(F)cc1)C(=O)O; Phe(2-F) = N[C@@H](Cc1ccccc1F)C(=O)O; Bta = N[C@@H](Cc1csc2ccccc12)C(=O)O; d(hLeu) = CC(C)CC[C@@H](N)C(=O)O; 2Thi = N[C@@H](Cc1cccs1)C(=O)O; dCha = N[C@H](CC1CCCCC1)C(=O)O; Nle = CCCC[C@H](N)C(=O)O; Orn = NCCC[C@H](N)C(=O)O; Aze = O=C(O)[C@@H]1CCN1; NBuGly = CCCCNCC(=O)O

Take a look at these entries with their results.
| compound | target or test system | reported |
| --- | --- | --- |
| CC(=O)N[C@@H](Cc1ccccc1)C(=O)N[C@@H](CCCN)C(=O)N1CCC[C@H]1C(=O)N[C@H](CC1CCCCC1)C(=O)N[C@@H](Cc1c[nH]c2ccccc12)C(=O)N[C@@H](Cc1ccccc1)C(N)=O [Compound 51, Ac-Phe-Orn-Pro-cha-Trp-Phe-NH2] (Ac-F[Orn]P[dCha]WF-NH2) | human C5aR(CD88) (Homo sapiens) | 7.30 to 7.70 |
| CC(=O)N[C@@H](Cc1ccccc1F)C(=O)N[C@@H](CCCN)C(=O)N1CCC[C@H]1C(=O)N[C@H](CCC(C)C)C(=O)N[C@@H](Cc1csc2ccccc12)C(=O)N[C@@H](Cc1ccccc1)C(N)=O [Compound 167, Ac-Off-Orn-Pro-hle-Bta-Phe-NH2] (Ac-[Phe(2-F)][Orn]P[d(hLeu)][Bta]F-NH2) | human C5aR(CD88) (Homo sapiens) | 7.30 to 7.70 |
| CC(=O)N[C@@H](Cc1ccccc1)C(=O)N[C@@H](Cc1ccc(N)cc1)C(=O)N1CCC[C@H]1C(=O)N[C@H](CC1CCCCC1)C(=O)N[C@@H](Cc1csc2ccccc12)C(=O)N[C@@H](Cc1ccccc1)C(N)=O [Compound 127, Ac-Phe-Paf-Pro-cha-Bta-Phe-NH2] (Ac-F[Phe(4-NH2)]P[dCha][Bta]F-NH2) | human C5aR(CD88) (Homo sapiens) | 5.70 to 6.70 |
| CC(=O)N[C@@H](Cc1cccs1)C(=O)N[C@@H](CCCN)C(=O)N1CC[C@H]1C(=O)N[C@H](CC1CCCCC1)C(=O)N[C@@H](Cc1csc2ccccc12)C(=O)N[C@@H](Cc1ccccc1)C(N)=O [Compound 66, Ac-Thi-Orn-Aze-cha-Bta-Phe-NH2] (Ac-[2Thi][Orn][Aze][dCha][Bta]F-NH2) | human C5aR(CD88) (Homo sapiens) | 7.70 to 8.00 |
| CCCCN(CC(=O)N1CCC[C@H]1C(=O)N[C@H](CC1CCCCC1)C(=O)N[C@@H](Cc1c[nH]c2ccccc12)C(=O)N[C@@H](Cc1ccccc1)C(N)=O)C(=O)[C@H](Cc1ccccc1)NC(C)=O [Compound 148, Ac-Phe-N(nBu)-CH2—CO-Pro-cha-Trp-Phe-NH2] (Ac-F[NBuGly]P[dCha]WF-NH2) | human C5aR(CD88) (Homo sapiens) | 5.70 to 6.70 |

Reported pIC50 ( CCSC[C@@H]1NC(=O)[C@H](Cc2c[nH]c3ccccc23)NC(=O)[C@@H](CC2CCCCC2)NC(=O)[C@@H]2CCCN2C(=O)[C@@H](NC(=O)[C@H](Cc2ccccc2)NC(C)=O)CCCNC1=O [Compound 34, Ac-Phe-[Orn-Pro-cha-Trp-Ebd]] (Ac-F[Orn]P[dCha]WC(Et); lactam 2-C) ) = 7.30 to 7.70

Reported pIC50 ( CCCC[C@@H]1NC(=O)[C@H](Cc2ccc(F)cc2)NC(=O)[C@@H](CCC(C)C)NC(=O)[C@H](CO)NC(=O)[C@@H](NC(=O)[C@@H](N)Cc2ccccc2)CCCNC1=O [Compound 388, H-Phe-[Orn-Ser-hle-Pff-Nle]] (H-F[Orn]S[d(hLeu)][Phe(4-F)][Nle]; lactam 2-C) ) = 7.30 to 7.70
